Value source: patent EP0028959A1

- procedure_summary: Acute toxicity, DL 50 in mice (Litchfield and Wilcoxon method)
- Type: in vivo, souris
- experimental_context: mouse, in vivo, po; per os, male mice 20 à 25g; DL 50 and its upper and lower limits for p = 0,05
Reported LD50 is given for each of the following molecules.

# molecule, LD50
data = [
    ("Oc1ccc2c(c1)CCN1Cc3ccccc3CC21 (centres unmarked) [STB4]", "464 mg/kg"),
    ("COc1cc2c(cc1OC)CN1CCc3cc(O)ccc3C1C2 (centres unmarked) [STB6]", "275 mg/kg"),
    ("O=C(Cc1ccccc1)Oc1ccc2c(c1)CCN1Cc3ccccc3CC21 (centres unmarked) [STB69]", "> 650 mg/kg"),
    ("COc1cc2c(cc1OC)CN1CCc3cc(OC(=O)Cc4ccccc4)ccc3C1C2 (centres unmarked) [STB52]", "550 mg/kg"),
    ("c1ccc2c(c1)CC1c3ccccc3CCN1C2 (centres unmarked) [STB0, reference compound]", "464 mg/kg"),
]
